- target-or-test-system: HLA-A*02:01
- experimental-protocol: IEDB peptide-MHC binding, purified MHC/competitive/fluorescence; filed as Kd, often an IC50 or EC50 that approximates it; bounds were set here for any values at or beyond the usual limits of such assays
- reported-conditions: source organism: Escherichia coli 536
measured-quantity: Kd

{"seq-string": "VMAASGAPF", "measured-quantity": "Kd", "result": "≥ 20 µM"}

---

- target-or-test-system: HLA-A*03:01
- experimental-protocol: IEDB peptide-MHC binding, purified MHC/competitive/fluorescence; filed as Kd, often an IC50 or EC50 that approximates it; bounds were set here for any values at or beyond the usual limits of such assays
- reported-conditions: source organism: Cryptosporidium parvum Iowa II

{"seq-string": "SGLPGIFIV", "Kd": "≥ 20 µM"}

---

- target-or-test-system: HLA-C*05:01
- experimental-protocol: IEDB peptide-MHC binding, purified MHC/direct/fluorescence; filed as Kd, often an IC50 or EC50 that approximates it; bounds were set here for any values at or beyond the usual limits of such assays
- reported-conditions: source organism: Toxoplasma gondii ME49
measured-quantity: Kd

{"seq-string": "RATSHVPEF", "target-or-test-system": "HLA-C*05:01", "measured-quantity": "Kd", "result": "≥ 20 µM"}

---

- target-or-test-system: HLA-A*02:01
- experimental-protocol: IEDB peptide-MHC binding, purified MHC/competitive/fluorescence; bounds were set here for any values at or beyond the usual limits of such assays
- reported-conditions: source organism: Zaire ebolavirus
pIC50: −log10 of the molar value.
Criterion: pIC50 meeting or surpassing 5. Met: TRUE. Not met: FALSE.

{"seq-string": "AMNEENRFV", "target-or-test-system": "HLA-A*02:01", "class-label": "TRUE"}
{"seq-string": "YTSGKRSNT", "target-or-test-system": "HLA-A*02:01", "class-label": "FALSE"}
{"seq-string": "VATDVPSAT", "target-or-test-system": "HLA-A*02:01", "class-label": "FALSE"}
{"seq-string": "SETAGNNNT", "target-or-test-system": "HLA-A*02:01", "class-label": "FALSE"}
{"seq-string": "YFGPAAEGI", "target-or-test-system": "HLA-A*02:01", "class-label": "FALSE"}
{"seq-string": "TIHHASAPL", "target-or-test-system": "HLA-A*02:01", "class-label": "TRUE"}
{"seq-string": "ITNTIAGVA", "target-or-test-system": "HLA-A*02:01", "class-label": "FALSE"}
{"seq-string": "DVDKLVCRD", "target-or-test-system": "HLA-A*02:01", "class-label": "FALSE"}
{"seq-string": "DDQEKKILM", "target-or-test-system": "HLA-A*02:01", "class-label": "FALSE"}
{"seq-string": "SFQQTNAMV", "target-or-test-system": "HLA-A*02:01", "class-label": "FALSE"}
{"seq-string": "KILTAGLSV", "target-or-test-system": "HLA-A*02:01", "class-label": "TRUE"}
{"seq-string": "SLTESDMDY", "target-or-test-system": "HLA-A*02:01", "class-label": "FALSE"}
{"seq-string": "FLESGAVKY", "target-or-test-system": "HLA-A*02:01", "class-label": "FALSE"}
{"seq-string": "LQLNETIYT", "target-or-test-system": "HLA-A*02:01", "class-label": "TRUE"}
{"seq-string": "GLITGGRRT", "target-or-test-system": "HLA-A*02:01", "class-label": "FALSE"}
{"seq-string": "VKRLEELLP", "target-or-test-system": "HLA-A*02:01", "class-label": "FALSE"}
{"seq-string": "IILFQRTFS", "target-or-test-system": "HLA-A*02:01", "class-label": "FALSE"}
{"seq-string": "RTFSIPLGV", "target-or-test-system": "HLA-A*02:01", "class-label": "TRUE"}

---

- target-or-test-system: HLA-B*44:02
- experimental-protocol: IEDB peptide-MHC binding, purified MHC/competitive/fluorescence; filed as Kd, often an IC50 or EC50 that approximates it; bounds were set here for any values at or beyond the usual limits of such assays
- reported-conditions: source organism: Entamoeba histolytica HM-1:IMSS
measured-quantity: Kd

{"seq-string": "IESNPLFPV", "target-or-test-system": "HLA-B*44:02", "result": "≥ 5 µM"}

---

- target-or-test-system: HLA-A*66:01
- experimental-protocol: IEDB peptide-MHC binding, purified MHC/competitive/fluorescence; filed as Kd, often an IC50 or EC50 that approximates it; bounds were set here for any values at or beyond the usual limits of such assays
- reported-conditions: source organism: Cryptosporidium parvum Iowa II
pKd: −log10 of the molar value.
measured-quantity: pKd

{"seq-string": "TVFRNQNRV", "target-or-test-system": "HLA-A*66:01", "measured-quantity": "pKd", "result": "≤ 5.30"}

---

- target-or-test-system: HLA-A*02:06
- experimental-protocol: IEDB peptide-MHC binding, purified MHC/competitive/radioactivity; filed as Kd, often an IC50 or EC50 that approximates it; bounds were set here for any values at or beyond the usual limits of such assays
- reported-conditions: source organism: Dengue virus 4 Philippines/H241/1956
pKd: −log10 of the molar value.
# pKd annotations
measured-quantity: pKd

{"seq-string": "IAVASGLLWV", "numeric-result": 7.97}
{"seq-string": "RTTWAFCEV", "numeric-result": 7.64}
{"seq-string": "LLVKLALITV", "numeric-result": 6.11}
{"seq-string": "FMKDGRSLV", "numeric-result": 6.50}

---

- target-or-test-system: HLA-A*02:01
- experimental-protocol: IEDB peptide-MHC binding, purified MHC/direct/fluorescence; filed as Kd, often an IC50 or EC50 that approximates it; bounds were set here for any values at or beyond the usual limits of such assays
- reported-conditions: source organism: Giardia lamblia ATCC 50803

{"seq-string": "YLDMVLAFL", "Kd": "0.0185 µM"}
{"seq-string": "RTDPVIDNI", "Kd": "≥ 20 µM"}
{"seq-string": "KVGVYKMHK", "Kd": "≥ 20 µM"}
{"seq-string": "DEKPKVMEG", "Kd": "≥ 20 µM"}

---

- target-or-test-system: HLA-B*18:01
- experimental-protocol: IEDB peptide-MHC binding, purified MHC/competitive/radioactivity; filed as Kd, often an IC50 or EC50 that approximates it; bounds were set here for any values at or beyond the usual limits of such assays
- reported-conditions: source organism: Mammarenavirus tacaribeense
pKd: −log10 of the molar value.

{"seq-string": "AEFKSRFFVM", "pKd": 7.43}

---

- target-or-test-system: HLA-B*51:01
- experimental-protocol: IEDB peptide-MHC binding, purified MHC/competitive/fluorescence; filed as Kd, often an IC50 or EC50 that approximates it; bounds were set here for any values at or beyond the usual limits of such assays
- reported-conditions: source organism: Vibrio cholerae 2740-80
pKd: −log10 of the molar value.
measured-quantity: pKd

{"seq-string": "YEPEMQAQV", "target-or-test-system": "HLA-B*51:01", "result": "≤ 4.70"}

---

- target-or-test-system: HLA-A*11:01
- experimental-protocol: IEDB peptide-MHC binding, purified MHC/competitive/fluorescence; bounds were set here for any values at or beyond the usual limits of such assays
- reported-conditions: source organism: Vaccinia virus

{"seq-string": "NNIGIEYSK", "IC50": "≥ 173 µM"}
{"seq-string": "AVDRGCLRI", "IC50": "11.8 µM"}

---

# pKd annotations
- target-or-test-system: HLA-A*33:01
- experimental-protocol: IEDB peptide-MHC binding, purified MHC/competitive/radioactivity; filed as Kd, often an IC50 or EC50 that approximates it; bounds were set here for any values at or beyond the usual limits of such assays
- reported-conditions: source organism: SARS coronavirus Tor2
pKd: −log10 of the molar value.
measured-quantity: pKd

{"seq-string": "KQIRSAAKK", "qualifier-sign": "≤", "numeric-result": 4.11}
{"seq-string": "KVAGFAKFLK", "qualifier-sign": "=", "numeric-result": 5.50}
{"seq-string": "SLLKTHRMCK", "qualifier-sign": "=", "numeric-result": 5.16}
{"seq-string": "GVAPGTAVLR", "qualifier-sign": "≤", "numeric-result": 4.38}
{"seq-string": "VLDMCAALK", "qualifier-sign": "=", "numeric-result": 4.87}
{"seq-string": "RAIMATIQR", "qualifier-sign": "=", "numeric-result": 5.15}
{"seq-string": "CLAVHECFVK", "qualifier-sign": "≤", "numeric-result": 4.21}
{"seq-string": "QLPQGTTLPK", "qualifier-sign": "≤", "numeric-result": 4.43}
{"seq-string": "GFAAYNRYR", "qualifier-sign": "=", "numeric-result": 5.01}
{"seq-string": "SAAAYFVGY", "qualifier-sign": "≤", "numeric-result": 4.67}
{"seq-string": "LILCFTIKR", "qualifier-sign": "=", "numeric-result": 5.15}
{"seq-string": "AVVCYNSNY", "qualifier-sign": "≤", "numeric-result": 4.11}
{"seq-string": "SICSTMTNR", "qualifier-sign": "=", "numeric-result": 7.38}
{"seq-string": "GALDTTSYR", "qualifier-sign": "=", "numeric-result": 5.85}
{"seq-string": "KQMYKTPTLK", "qualifier-sign": "=", "numeric-result": 4.94}
{"seq-string": "IISDMYDPR", "qualifier-sign": "=", "numeric-result": 5.87}
{"seq-string": "WVLAYMLFTK", "qualifier-sign": "=", "numeric-result": 5.40}
{"seq-string": "KFYGPFVDR", "qualifier-sign": "=", "numeric-result": 5.69}
{"seq-string": "VAFELWAKR", "qualifier-sign": "=", "numeric-result": 7.28}
{"seq-string": "AFSLDVSEK", "qualifier-sign": "≤", "numeric-result": 4.11}
{"seq-string": "LLRALRLTK", "qualifier-sign": "≤", "numeric-result": 4.62}
{"seq-string": "TQSRDLEDFK", "qualifier-sign": "≤", "numeric-result": 4.15}
